Origin of the recorded values: ChEMBL document CHEMBL2385026

test: Oral bioavailability in Beagle dog at 2 mg/kg by LC/MS/MS analysis; type: ADME, organism-based, Canis lupus familiaris; settings: Beagle, in vivo
Reported metric: bioavailability

structure_smiles_string=C[C@@H](O)c1nc2cnc3[nH]ccc3c2n1[C@H]1CC[C@H](NCC(F)(F)F)CC1 result_value=139%
structure_smiles_string=C[C@@H](O)c1nc2cnc3[nH]ccc3c2n1[C@H]1CC[C@H](C#N)CC1 result_value=119%
structure_smiles_string=C[C@@H](O)c1nc2cnc3[nH]ccc3c2n1[C@H]1CC[C@H](CCC#N)CC1 result_value=125%
structure_smiles_string=C[C@@H](O)c1nc2cnc3[nH]ccc3c2n1[C@H]1CCCOC1 result_value=111%
structure_smiles_string=C[C@@H](O)c1nc2cnc3[nH]ccc3c2n1[C@H]1CC[C@@H](NCC(F)(F)F)C1 result_value=131%
